Where do these numbers come from? They come from patent US11072632B2.

# SUBJECT_OF_TEST: 17β-HSD3 (Homo sapiens)
# Construct: expressed in transfected cells; host or cells: HEK-293 (homogenate)
# MEASUREMENT_NOTES: Inhibition of 17β-HSD3 in homogenated HEK-293 cells
# Type: biochemical
# EXPERIMENTAL_PARAMETERS: Table 3; 0.01 μM
# key: entry, value: Homo (%) (0.01 μM)
REPORTED_METRIC: Homo (%) (0.01 μM)

* CC1CN(C[C@@]2(O)CC[C@@]3(C)[C@@H](CC[C@@H]4[C@@H]3CC[C@]3(C)C(=O)CC[C@@H]43)C2)C(C)CN1Cc1cc(C(F)(F)F)ccc1C(F)(F)F (stereo partly shown) [Compound 11h] | 16
* CC1CN(C(=O)c2ccccc2)C(C)CN1C[C@@]1(O)CC[C@@]2(C)[C@@H](CC[C@@H]3[C@@H]2CC[C@]2(C)C(=O)CC[C@@H]32)C1 (stereo partly shown) [Compound 13a] | 24
* C[C@]12CC[C@](O)(CN3CCN(Cc4cccc(Cl)c4)CC3)C[C@@H]1CC[C@@H]1[C@@H]2CC[C@]2(C)C(=O)CC[C@@H]12 [Compound 10e] | 26
* CC1CN(S(=O)(=O)c2ccccc2C(F)(F)F)C(C)CN1CC1(O)CCC2(C)C(CCC3C4CCC(=O)C4(C)CCC32)C1 (stereo not shown) [Compound 15c] | 79
* CC1CN(CC2(O)CCC3(C)C(CCC4C5CCC(=O)C5(C)CCC43)C2)C(C)CN1Cc1ccccc1C(F)(F)F (stereo not shown) [Compound 11b] | 22
* CC1CN(S(=O)(=O)c2cccc(C(F)(F)F)c2)C(C)CN1C[C@@]1(O)CC[C@@]2(C)[C@@H](CC[C@@H]3[C@@H]2CC[C@]2(C)C(=O)CC[C@@H]32)C1 (stereo partly shown) [Compound 15a] | 32
* CC1CN(CC2(O)CCC3(C)C(CCC4C5CCC(=O)C5(C)CCC43)C2)C(C)CN1Cc1cccnc1 (stereo not shown) [Compound 11g] | 17
* CC1CN(C(=O)c2ccc(C(F)(F)F)cc2)C(C)CN1C[C@@]1(O)CC[C@@]2(C)[C@@H](CC[C@@H]3[C@@H]2CC[C@]2(C)C(=O)CC[C@@H]32)C1 (stereo partly shown) [Compound 13d] | 17
* CC1CN(C[C@@]2(O)CC[C@@]3(C)[C@@H](CC[C@@H]4[C@@H]3CC[C@]3(C)C(=O)CC[C@@H]43)C2)C(C)CN1Cc1ccc(C(F)(F)F)cc1 (stereo partly shown) [Compound 11c] | 14
* C[C@]12CC[C@](O)(CN3CCN(Cc4cc(C(F)(F)F)ccc4C(F)(F)F)CC3)C[C@@H]1CC[C@@H]1[C@@H]2CC[C@]2(C)C(=O)CC[C@@H]12 [Compound 10h] | 18

---

# SUBJECT_OF_TEST: 17β-HSD3 (Homo sapiens, UniProt P37058)
# Construct: expressed in transfected cells; host or cells: HEK-293 (homogenate)
# Sequence (P37058 1-310): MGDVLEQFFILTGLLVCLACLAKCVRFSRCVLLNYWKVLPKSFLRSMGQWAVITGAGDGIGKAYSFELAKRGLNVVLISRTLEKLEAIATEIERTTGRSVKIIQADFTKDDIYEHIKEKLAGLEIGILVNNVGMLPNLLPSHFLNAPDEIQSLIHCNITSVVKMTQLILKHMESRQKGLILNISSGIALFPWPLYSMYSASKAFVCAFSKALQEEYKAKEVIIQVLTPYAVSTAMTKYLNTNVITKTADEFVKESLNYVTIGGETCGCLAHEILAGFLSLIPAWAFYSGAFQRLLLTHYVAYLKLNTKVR
# MEASUREMENT_NOTES: Inhibition of 17β-HSD3 in intact HEK-293 cells
# Type: cell-based
# EXPERIMENTAL_PARAMETERS: HEK293, 1 h, read-out: Intact cells (%) (0.1 μM), Table 4; 0.1 μM
REPORTED_METRIC: inhibition at 0.1 µM (%)

• Cc1cccc(S(=O)(=O)CCN2C[C@]3(CC[C@@]4(C)[C@@H](CC[C@@H]5[C@@H]4CC[C@]4(C)C(=O)CC[C@@H]54)C3)OC2=O)c1 [Compound 23b] = 5
• C[C@]12CC[C@@]3(C[C@@H]1CC[C@@H]1[C@@H]2CC[C@]2(C)C(=O)CC[C@@H]12)CN(CCBr)C(=O)O3 = 31
• C[C@]12CC[C@@]3(C[C@@H]1CC[C@@H]1[C@@H]2CC[C@]2(C)C(=O)CC[C@@H]12)CN(Cc1ccccc1C(F)(F)F)C(=O)O3 [Compound 17f] = 35
• Cc1ccc(CN2C[C@]3(CC[C@@]4(C)[C@@H](CC[C@@H]5[C@@H]4CC[C@]4(C)C(=O)CC[C@@H]54)C3)OC2=O)cc1 [Compound 17b] = 38
• CCN(CCN1C[C@]2(CC[C@@]3(C)[C@@H](CC[C@@H]4[C@@H]3CC[C@]3(C)C(=O)CC[C@@H]43)C2)OC1=O)C1CCCCC1 [Compound 23e] = 2
• C[C@]12CC[C@@]3(C[C@@H]1CC[C@@H]1[C@@H]2CC[C@]2(C)C(=O)CC[C@@H]12)CN(Cc1cc(C(F)(F)F)cc(C(F)(F)F)c1)C(=O)O3 [Compound 17h] = 35
